tested on: leukemia Jurkat-T; type: cell-based, human; details: read-out: IC50 Jurkat; 24 h incubation, MTT, mean ± SD (n = 4)
property: IC50 (µM)
Give just the numeric value; µM need not be written.

Query: IC50; subject: N.N.[Cl][Pt][Cl] [cisplatin]
10.8
